{"Compound": "COc1ccc2[nH]c(C(=O)c3cc4ccccc4[nH]3)cc2c1", "melting point": "112 °C"}
{"Compound": "Cc1c(-c2ccc([N+](=O)[O-])cc2)sc2c1c(=O)c(OC(C)C)cn2Cc1c(F)cccc1F", "melting point": "188 to 189 °C"}
{"Compound": "COC(=C(OC)c1ccccc1OC)c1ccc(N)nn1", "melting point": "139 to 142 °C"}
{"Compound": "CCC(CO)Nc1c(-c2c(F)cc(F)cc2F)c(Cl)nc2ncnn12 (stereo not given)", "melting point": "76 to 77 °C"}
{"Compound": "CCCCOc1cc2c(cc1C=Cc1ccc(C(=O)O)cc1)C(C)(C)CCC2(C)C", "melting point": "194 to 196 °C"}

====

Listing: melting point of selected compounds

{"Compound": "COc1ccc(-c2c(Cl)nc(C)nc2NS(=O)(=O)c2ccc(OC)cc2)cc1", "melting point": "152 to 154 °C"}
{"Compound": "CN(CCOc1ccc(CC(OCC(F)(F)F)C(=O)O)cc1)c1nc2ccccc2o1 (centres undefined)", "melting point": "116 to 117 °C"}
{"Compound": "Cc1nc(N2CCN(CCc3c[nH]c4ccccc34)C2=O)sc1C(=O)NCc1cccnc1", "melting point": "198 to 201 °C"}
{"Compound": "CCCc1nn(C)c2c(=O)n(CCNc3ccc(SC(C)(C)C(=O)OCC)cc3)c(CC)nc12", "melting point": "105 to 107 °C"}
{"Compound": "CCOC(=O)Cc1nc(-c2ccc(F)cc2)oc1-c1ccco1", "melting point": "110 to 111 °C"}
{"Compound": "COc1cccnc1C(=O)NCCNC(=O)OC(C)(C)C", "melting point": "115 °C"}
{"Compound": "O=C(O)c1cc2c(F)c(F)c(F)c(F)c2s1", "melting point": "200 °C"}
{"Compound": "CCOC(=O)c1cnc2c3ccccc3c(CC)cn2c1=O", "melting point": "161 to 163 °C"}
{"Compound": "CCOC(=O)c1ccc(OCCCCCCCc2cc(C)no2)cc1", "melting point": "60 to 61 °C"}
{"Compound": "CN(C)c1ccc(NC(=S)NCC(C)(C)C)cc1", "melting point": "174 to 176 °C"}
{"Compound": "CCOC(=O)c1c(C)cc2c(c1C)c(=O)n(-c1ccccc1Cl)c(=O)n2CC(=O)NCCN(CC)CC", "melting point": "193 to 194 °C"}
{"Compound": "O=C1O[C@@H](COc2cnsn2)CN1c1ccc(N2C[C@@H]3C[C@H]2CN3Cc2ccccc2)c(F)c1", "melting point": "97 to 98 °C"}
{"Compound": "Cc1ncc([N+](=O)[O-])n1CCN1C(=O)c2cccc([N+](=O)[O-])c2C1=O", "melting point": "175 to 176 °C"}
{"Compound": "CC(C)(C)c1cc(C(=O)c2cccs2)cc(CN(CCO)CCO)c1O", "melting point": "108 to 110 °C"}
{"Compound": "CC(C)(C)CC(C)(C)c1cc(Cl)c(O)c(-n2nc3ccc(C(F)(F)F)cc3n2)c1", "melting point": "72 to 81 °C"}
{"Compound": "CCOCOC1(C(=O)COC(C)=O)C(C)CC2C3CC(C)C4=CC(=O)C=CC4(C)C3C(O)CC21C (centres undefined)", "melting point": "137 to 139 °C"}
{"Compound": "Cc1c(Br)sc2ccc(Br)cc12", "melting point": "118 to 122 °C"}
{"Compound": "CC(C)c1ccc(N(Cc2ccc(N(C)C)cc2)C(=O)C2CCCc3ccccc32)cc1 (centres undefined)", "melting point": "121 °C"}
{"Compound": "CCOC(=O)c1csc(NC(c2ccccc2)(c2ccccc2)c2ccccc2)n1", "melting point": "140 to 141 °C"}
{"Compound": "CC(Oc1ccc(-c2cc(C(F)(F)F)cc(S(N)(=O)=O)c2)cc1)C(O)CCc1cccnc1 (centres undefined)", "melting point": "57 to 59 °C"}
{"Compound": "CC(=CCP(=O)(O)O)C(N)C(=O)O (centres undefined)", "melting point": "168 °C"}
{"Compound": "O=C1OC(=O)c2c1c1c3ccccc3[nH]c1c1c2c2cccnc2n1C1OC(CO)C(O)C(O)C1O (centres undefined)", "melting point": "> 300 °C"}
{"Compound": "NC(=O)c1ccc(CN2CCN(C(=O)c3cc(C(F)(F)F)cc(C(F)(F)F)c3)[C@H](Cc3c[nH]c4ccccc34)C2)cc1", "melting point": "120 to 126 °C"}
{"Compound": "CCOC(=O)c1cc2cc(NC(=O)OCc3ccccc3)ccc2nn1", "melting point": "205 °C"}
{"Compound": "Nc1ccc(Br)n2nc(SCc3ccccc3)nc12", "melting point": "125 to 126 °C"}
{"Compound": "CC(C(=O)O)c1ccc(I)cc1 (centres undefined)", "melting point": "101 to 102 °C"}
{"Compound": "CCCCCCCC=CC1=Nc2ccc(F)cc2C(=O)C1C (centres undefined)", "melting point": "192 to 193 °C"}
{"Compound": "NC(=O)OCCn1cc(C(N)=O)c([N+](=O)[O-])n1", "melting point": "191 to 194 °C"}
{"Compound": "CN1CCC(=C2c3ccccc3C=Cc3ccc(C(=O)OCn4ccnc4)cc32)CC1", "melting point": "118 to 121 °C"}
{"Compound": "COc1cccc2c1CCC(COS(=O)(=O)c1ccc(C)cc1)C2 (centres undefined)", "melting point": "81 to 82 °C"}
{"Compound": "CCOP(=O)(OCC)C(O)[C@H](CC1CCCCC1)NC(=O)[C@H](CC(C)C)NC(=O)[C@H](Cc1ccccc1)NC(=O)OC(C)(C)C (some centres undefined)", "melting point": "173 to 175 °C"}
{"Compound": "CCCn1cc(C(N)=O)c(N)n1", "melting point": "160 to 163 °C"}
{"Compound": "NC(=O)c1ccc(N2CCN(Cc3cn4cc(Cl)cc(Cl)c4n3)CC2)cc1", "melting point": "234 to 235 °C"}
{"Compound": "COC(=O)C=Cc1ccc2ccccc2n1", "melting point": "85 to 86 °C"}
{"Compound": "CC(=O)c1cn(Cc2ccc(F)cc2)c(=O)n(Cc2ccc(F)cc2)c1=O", "melting point": "134 to 135 °C"}
{"Compound": "COc1cc2ncc(C#N)c(Nc3ccc(Cl)cc3F)c2cc1OC", "melting point": "139 to 141 °C"}
{"Compound": "CCN(CC)CCC1CCCN1CCNC(=O)N1c2ccccc2C(=O)Nc2cccnc21 (centres undefined)", "melting point": "127 to 128 °C"}
{"Compound": "COc1ccc2cc([C@H](C)C(=O)NOCC(=O)OC(C)(C)C)ccc2c1", "melting point": "82 to 84 °C"}
{"Compound": "COC(=O)CC(O)CP(=O)(C#Cc1c(C(C)C)c2n(c1-c1ccc(F)cc1)CCCC2)OC (centres undefined)", "melting point": "100 to 101 °C"}

====

{"Compound": "O=C(O)CN1C(=O)C(NC(CCc2ccccc2)C(=O)O)CCc2ccccc21 (stereo not given)", "melting point": "256 to 259 °C"}
{"Compound": "O=c1c2ccc(Cl)cc2[nH]c2c(=O)n(CCO)nc(O)c12", "melting point": "377 to 378 °C"}
{"Compound": "CC(C)(O)CC(=O)c1cc(C(C)(C)C)c(O)c(C(C)(C)C)c1", "melting point": "113 to 114 °C"}
{"Compound": "CCCCc1cc2cc(OCC(=O)OCC)c(Cl)c(Cl)c2s1", "melting point": "72 to 73 °C"}
{"Compound": "Nc1cc(OC2CCNCC2)c(F)c2c1c(=O)c(C(=O)O)cn2C1CC1", "melting point": "> 300 °C"}
{"Compound": "C=CCOC(=O)c1c(Oc2nc(OC)cc(OC)n2)ccc2[nH]c(C)c(NC(C)=O)c12", "melting point": "177 to 180 °C"}
{"Compound": "Cc1cc(C=O)c2ccccc2c1O", "melting point": "160 to 161 °C"}
{"Compound": "CCOC(=O)CN1C(=O)CN2CC(=O)NN=C21", "melting point": "188 to 193 °C"}
{"Compound": "CNC(=S)NS(=O)(=O)c1cc(CCNC(=O)/C=C/c2cccs2)ccc1OC", "melting point": "74 to 77 °C"}
{"Compound": "CC1(C)OC(c2ccc(S(C)(=O)=O)cc2)=C(c2ccc3c(c2)OCO3)C1=O", "melting point": "178 to 179 °C"}

====

Listing: melting point of selected compounds

{"Compound": "CCCCn1c(=O)c2c(ncn2S(=O)(=O)c2cccc([N+](=O)[O-])c2)n(CCCC)c1=O", "melting point": "178 to 179 °C"}
{"Compound": "COc1ccc(OC)c2c1C[C@](O)(C(C)=O)CC21SCCS1", "melting point": "175 to 178 °C"}
{"Compound": "Cc1ccc(N(C)S(=O)(=O)c2cccs2)c2[nH]c(C(N)=O)cc12", "melting point": "221 to 222 °C"}
{"Compound": "N#Cc1ccccc1C(Cc1ccc(C(F)(F)F)cc1)Cn1cncn1 (stereo unspecified)", "melting point": "123 °C"}
{"Compound": "O=C(NCC12CC3CC(CC(Cl)(C3)C1)C2)c1ccccc1Cl", "melting point": "153 °C"}
{"Compound": "CC(=O)Oc1cc(O)c(Cl)cn1", "melting point": "270 to 272 °C"}
